# TARGET OF ASSAY: Cyclin-dependent kinase 5/CDK5 activator 1 (Homo sapiens)
# Sequence (Q00535 whole entry): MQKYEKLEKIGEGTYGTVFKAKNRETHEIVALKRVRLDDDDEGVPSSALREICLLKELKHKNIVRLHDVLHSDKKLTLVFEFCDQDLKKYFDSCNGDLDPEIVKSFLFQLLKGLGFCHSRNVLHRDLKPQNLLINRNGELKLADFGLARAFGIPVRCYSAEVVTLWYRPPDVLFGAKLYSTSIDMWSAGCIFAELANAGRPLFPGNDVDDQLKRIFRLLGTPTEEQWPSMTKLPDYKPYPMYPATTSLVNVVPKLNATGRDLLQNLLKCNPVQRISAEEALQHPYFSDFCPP
# Sequence (Q15078 whole entry, further chain): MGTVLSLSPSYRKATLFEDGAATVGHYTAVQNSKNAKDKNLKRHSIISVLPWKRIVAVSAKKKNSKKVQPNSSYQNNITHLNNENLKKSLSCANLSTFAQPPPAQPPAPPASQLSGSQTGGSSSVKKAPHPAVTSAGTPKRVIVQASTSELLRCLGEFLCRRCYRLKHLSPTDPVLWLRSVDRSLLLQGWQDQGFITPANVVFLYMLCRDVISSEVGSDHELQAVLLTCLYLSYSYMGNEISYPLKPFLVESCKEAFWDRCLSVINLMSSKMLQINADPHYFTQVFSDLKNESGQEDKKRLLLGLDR
# EXPERIMENT DESCRIPTION: Inhibition of human cdk5/p25 by SPA
pIC50: −log10 of the molar value.
MEASURED QUANTITY: pIC50

Task: Entry "N#CCSc1nnc(Cc2csc(NC(=O)c3ccccc3)n2)n1NC(=O)c1ccc(Cl)cc1" : reported pIC50 = ?
Output: 7.19

(I) O=C(Nc1nc(Cc2n[nH]c(=S)n2NC(=O)c2ccccc2)cs1)c1ccccc1
(II) CC(=O)Nc1nc(Cc2nnc(SCC#N)n2NC(C)=O)cs1
Task: Smaller pIC50 value? Options are I and II Reply briefly: the label of your chosen item.
Output: I
